Assay comment: Solubility in p-xylene at room temperature (25° C.), visual complete dissolution
Type: physicochemical
Measured property: Solubility of compound (wt %)

A selection of reference data follows.
Smiles code	Measured property	Observed
CCCCCCCCCc1ccc2cc3cc(-c4ccccc4)ccc3cc2c1	Solubility of compound	0.7
CCCCCCCCc1ccc2cc3cc(-c4ccccc4)ccc3cc2c1	Solubility of compound	0.7
CCCCCCCc1ccc2cc3cc(-c4ccccc4)ccc3cc2c1	Solubility of compound	1.1
CCCCCCCCCCc1ccc2cc3cc(-c4ccc(C)cc4)ccc3cc2c1	Solubility of compound	0.4

I: CCCCCCCCCCc1ccc2cc3cc(-c4ccccc4)ccc3cc2c1
II: CCCCCCc1ccc2cc3cc(-c4ccc(C)cc4)ccc3cc2c1
III: CCCCCCc1ccc2cc3cc(-c4ccccc4)ccc3cc2c1
Arrange items by their Solubility of compound values in increasing order. Returns: the labels arranged in the requested order.
I, II, III
(I: 0.4 wt %, II: 0.8 wt %, III: 1.3 wt %)
